assayTarget: T1, recombinant human factor B (human, UniProt P00751 26-764, biotinylated (EZ-link) in the Octet assay only; sites not stated)
T1 construct: also called purified factor B protein
T1 sequence (P00751 26-764): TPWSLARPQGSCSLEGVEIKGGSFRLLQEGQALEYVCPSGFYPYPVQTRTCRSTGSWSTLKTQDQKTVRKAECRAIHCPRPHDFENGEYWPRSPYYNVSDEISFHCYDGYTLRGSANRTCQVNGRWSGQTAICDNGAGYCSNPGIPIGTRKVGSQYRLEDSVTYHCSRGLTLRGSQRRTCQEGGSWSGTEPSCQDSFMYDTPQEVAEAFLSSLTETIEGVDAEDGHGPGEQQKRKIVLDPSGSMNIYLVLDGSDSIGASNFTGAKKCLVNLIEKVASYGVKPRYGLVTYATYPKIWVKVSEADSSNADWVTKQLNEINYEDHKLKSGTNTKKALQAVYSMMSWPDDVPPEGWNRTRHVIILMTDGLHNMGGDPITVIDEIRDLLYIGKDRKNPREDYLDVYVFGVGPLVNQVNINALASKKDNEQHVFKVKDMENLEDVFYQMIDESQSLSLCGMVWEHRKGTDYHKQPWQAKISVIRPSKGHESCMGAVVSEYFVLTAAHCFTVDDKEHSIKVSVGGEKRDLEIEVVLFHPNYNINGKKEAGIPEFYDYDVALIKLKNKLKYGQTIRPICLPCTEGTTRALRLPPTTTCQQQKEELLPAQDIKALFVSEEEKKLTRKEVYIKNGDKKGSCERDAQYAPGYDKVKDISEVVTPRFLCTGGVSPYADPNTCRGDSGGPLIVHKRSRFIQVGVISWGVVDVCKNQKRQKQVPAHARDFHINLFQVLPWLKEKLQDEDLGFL
assayComment: BLI (ForteBio Octet), biotinylated human factor B on neutravidin sensors, Fab' at 1e-7 M
measurementLabel: koff (s⁻¹)
Hi! Could you send only the number? It should be in s⁻¹, unit omitted.

Need koff of TA103-2 Fab' (Fab, V domains shown, Humaneered Fab' expressed in E. coli) VH: QVQLVQSGAEVKKPGASVKVSCKASGYSFTDYYMTWVRQAPGQGLEWMGWINPNSGGTKYAQKFQGRVTMTRDTSISTAYMELSRLRSDDTAVYYCARGYYANSAWFAYWGQGTLVTVSS VL: DIVMTQSPDSLAVSLGERATINCKSSQSLLNSRTSKNYLAWYQQKPGQPPKLLIYWASTRESGVPDRFSGSGSGTDFTLTISSLQAEDVAVYYCKQVYNLPWTFGQGTKLEIK , thanks. 0.0028

And for TA10 reference Fab' (Fab, V domains shown) VH: EVQLQQSGPELVKPGASVKIPCKASGYTFTDYNMDWVKQSHGKSLEWIGDINPNNGGTIYNQKFKGKATLTVDKSSSTAYMELRSLTSEDTAVYYCARGYYSNSAWFAYWGQGTLVTVSS VL: DIVMSQSPSSLAVSAGEKVTMSCKSSQSLLNSRTRKNYLAWYQQKPGQSPKLLIYWASTRESGVPDRFTGSGSGTDFTLTISSVQAEDLAVYYCKQSYNLPWTFGQGTKLEIK ? 0.00296

And for TA101-1 Fab' (Fab, V domains shown, Humaneered Fab' expressed in E. coli) VH: QVQLVQSGAEVKKPGASVKVSCKASGYSFTDYYMTWVRQAPGQGLEWMGWINPNSGGTKYAQKFQGRVTMTRDTSISTAYMELSRLRSDDTAVYYCARGYYANSAWFAYWGQGTLVTVSS VL: DIVMTQSPDSLAVSLGERATINCKSSQSLLNSSTSKNYLAWYQQKPGQPPKLLIYWASTRESGVPDRFSGSGSGTDFTLTISSLQAEDVAVYYCKQVYNLPWTFGQGTKLEIK ? 0.00233

And for TA102-4 Fab' (Fab, V domains shown, Humaneered Fab' expressed in E. coli) VH: QVQLVQSGAEVKKPGASVKVSCKASGYSFTDYYMTWVRQAPGQGLEWMGWINPNSGGTKYAQKFQGRVTMTRDTSISTAYMELSRLRSDDTAVYYCARGYYANSAWFAYWGQGTLVTVSS VL: DIVMTQSPDSLAVSLGERATINCKSSQSVLNSRNKKNYLAWYQQKPGQPPKLLIYWASTRESGVPDRFSGSGSGTDFTLTISSLQAEDVAVYYCKQVYNLPWTFGQGTKLEIK ? 0.00437
